# System: A549 (human lung carcinoma)
# Experiment summary: MTT cytotoxicity assay, A549
# Assay type: cell-based
# Condition info: 48 h, MTT
Experimental endpoint: pIC50
Schema: pIC50 number; meaning minus log10 of the concentration expressed in molar units.

{"columns": ["Compound", "Experimental endpoint", "Reported measurement"],
 "data": [
  ["[Cl-].[Cl-].[Ru+2].c1ccc(-c2ccnc3c2ccc2c(-c4ccccc4)ccnc23)cc1.c1ccc(-c2ccnc3c2ccc2c(-c4ccccc4)ccnc23)cc1 [Ru(dip)2Cl2, cis-[Ru(dip)2Cl2]]", "pIC50", 3.86],
  ["Cc1ccc2ccc3ccc(C)nc3c2n1.Cc1ccc2ccc3ccc(C)nc3c2n1.O=C1[O][Ru][O]c2ccccc21 [Ru-2, [Ru(dmp)2(SA)]]", "pIC50", 4.52],
  ["N.N.[Cl][Pt][Cl] [Cisplatin]", "pIC50", 4.57]
]}

Please give measured pIC50 of the following entry: O=C1[O][Ru][O]c2ccccc21.c1ccc(-c2ccnc3c2ccc2c(-c4ccccc4)ccnc23)cc1.c1ccc(-c2ccnc3c2ccc2c(-c4ccccc4)ccnc23)cc1 [Ru-1, [Ru(dip)2(SA)]] 4.95

====

# Tested on: HeLa (human cervical cancer)
# Experiment summary: MTT cytotoxicity assay, HeLa
# Assay type: cell-based
# Condition info: Homo sapiens, HeLa, 48 h
pIC50: −log10 of the molar value.
Experimental endpoint: pIC50

Please give measured pIC50 of the following entry: `O=C(O)c1ccccc1O` < 3.70

====

# Tested on: BEAS-2B (immortalized human bronchial epithelial cells)
# Experiment summary: MTT cytotoxicity assay, normal BEAS-2B
# Format: cell-based
# Condition info: 48 h
We begin with a simple list: items and their reported pIC50.
Schema: pIC50 number; meaning minus log10 of the concentration expressed in molar units.

// worked examples, pIC50 included
{"columns": ["Compound", "Target or test system", "pIC50"],
 "data": [
  ["N.N.[Cl][Pt][Cl] [Cisplatin]", "BEAS-2B (immortalized human bronchial epithelial cells)", 4.67],
  ["Cc1ccc2ccc3ccc(C)nc3c2n1.Cc1ccc2ccc3ccc(C)nc3c2n1.O=C1[O][Ru][O]c2ccccc21 [Ru-2, [Ru(dmp)2(SA)]]", "BEAS-2B (immortalized human bronchial epithelial cells)", 4.32]
]}

Below: the item to evaluate.
Please give measured pIC50 of the following entry: O=C1[O][Ru][O]c2ccccc21.c1ccc(-c2ccnc3c2ccc2c(-c4ccccc4)ccnc23)cc1.c1ccc(-c2ccnc3c2ccc2c(-c4ccccc4)ccnc23)cc1 [Ru-1, [Ru(dip)2(SA)]] 4.27
